Each record here notes measured protein stability index.
B1: VPS39 (parent)
chain: TTLLKCYLHTNVALVAPLLRLENN

Variants of: B1
assay: protein stability index of a GFP-peptide fusion (GPS, HEK-293T) (PSI 1-6); higher = more stable;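 also: lentivirally expressed fusions sorted by FACS into six bins by GFP to DsRed ratio, PSI derived from sequencing read proportions per bin multiplied by bin number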
details: c terminus: a fixed tail appended
// keep it numeric: no unit symbol after the value

Example results:
| var | protein stability index |
| --- | --- |
| V15C | 1.65 |
| R20P | 3.33 |
| L18K | 2.08 |
| C6E | 2.38 |
| V12S | 3.9 |
| V15F | 2.62 |

Challenge: Suppose we examine the variant T1I ; what protein stability index value has been reported?
Response given: 2.46

Challenge: Suppose we examine the variant L19Q ; what protein stability index value has been reported?
Response given: 1.46

Challenge: Suppose we examine the variant L3G ; what protein stability index value has been reported?
Response given: 1.84

Challenge: Suppose we examine the variant N23H ; what protein stability index value has been reported?
Response given: 2.29
